Experiment: Plasma and brain concentration after oral administration to ICR mice (HPLC-MS/MS)
Type: in vivo
Settings: brain/plasma, ICR mouse, 10 mg/kg, read-out: AUClast B/P ratio
measurement.type: Kp

input: Request the reported Kp associated with COCc1cc(NC2CCCC2)c2[nH]c(-c3ccccc3)cc2c1 [Example 2]
output: 1.9

---

Test: Plasma and brain concentration after oral administration to ICR mice (HPLC-MS/MS)
Assay type: in vivo
Details: ICR, mouse, plasma, po, 10 mg/kg, plasma, read-out: area under the plasma concentration v. time curve (AUClast)
measurement.type: AUC(0-t) (ng·h/mL)
One number for each entry, in ng·h/mL.

input: Request the reported AUC(0-t) associated with COCc1cc(NC2CCCC2)c2[nH]c(-c3ccccc3)cc2c1
output: 4940
